Attribution: the kinase profiling compilation of Christmann-Franck et al. (2016)

I'd appreciate it if you could supply residual activity values for the items below.
- testedSystem: EGFR (human) (UniProt P00533)
- Sequence (P00533 whole entry, looked up): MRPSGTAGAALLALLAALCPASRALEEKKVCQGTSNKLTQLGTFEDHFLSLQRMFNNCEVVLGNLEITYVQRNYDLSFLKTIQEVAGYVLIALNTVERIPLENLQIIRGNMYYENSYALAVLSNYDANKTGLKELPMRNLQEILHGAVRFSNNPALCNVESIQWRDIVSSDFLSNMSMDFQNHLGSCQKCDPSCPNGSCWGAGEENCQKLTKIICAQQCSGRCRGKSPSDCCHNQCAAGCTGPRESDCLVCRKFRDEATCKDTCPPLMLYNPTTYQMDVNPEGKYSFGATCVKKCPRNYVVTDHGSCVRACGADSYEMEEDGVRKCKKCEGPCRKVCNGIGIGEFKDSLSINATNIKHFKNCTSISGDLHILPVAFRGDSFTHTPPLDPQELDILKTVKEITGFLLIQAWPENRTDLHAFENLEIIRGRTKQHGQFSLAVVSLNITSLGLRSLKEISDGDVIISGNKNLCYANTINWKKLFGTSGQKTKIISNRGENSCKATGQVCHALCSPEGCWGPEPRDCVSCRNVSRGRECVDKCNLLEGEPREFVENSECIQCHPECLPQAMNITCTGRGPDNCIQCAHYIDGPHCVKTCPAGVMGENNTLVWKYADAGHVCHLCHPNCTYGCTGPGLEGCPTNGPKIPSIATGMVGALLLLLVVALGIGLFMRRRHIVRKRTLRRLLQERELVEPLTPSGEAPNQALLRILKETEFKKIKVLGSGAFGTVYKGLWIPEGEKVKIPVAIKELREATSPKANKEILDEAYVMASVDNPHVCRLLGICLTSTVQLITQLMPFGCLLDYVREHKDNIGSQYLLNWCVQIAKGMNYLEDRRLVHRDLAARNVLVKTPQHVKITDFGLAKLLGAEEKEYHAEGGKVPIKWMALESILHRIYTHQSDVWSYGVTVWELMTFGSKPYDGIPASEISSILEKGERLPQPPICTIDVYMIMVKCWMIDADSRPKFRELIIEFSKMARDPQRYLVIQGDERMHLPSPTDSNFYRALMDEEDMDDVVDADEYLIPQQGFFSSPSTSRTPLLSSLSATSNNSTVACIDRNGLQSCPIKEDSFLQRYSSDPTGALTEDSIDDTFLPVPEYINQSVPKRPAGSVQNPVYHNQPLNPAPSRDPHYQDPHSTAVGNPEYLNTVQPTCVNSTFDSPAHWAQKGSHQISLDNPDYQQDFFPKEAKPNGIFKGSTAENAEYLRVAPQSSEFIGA
- assayName: radiometric filter-binding kinase assay, Kinase HotSpot
- testSettings: compound 0.5 µM; ATP 10 µM
The answer is to be given in %; state only the numeric part.

Q: For the compound O=C(Nc1cccc(Nc2cc(Nc3cccc(C(F)(F)F)c3)ncn2)c1)C1CC1 , give its reported residual activity.
A: 5.82

Q: For the compound Nc1nccc(-c2c(-c3ccc(F)cc3)ncn2C2CCNCC2)n1 , give its reported residual activity.
A: 94.4

Q: For the compound CCn1cnc2c(Nc3cccc(Cl)c3)nc(N[C@@H]3CCCC[C@@H]3N)nc21 , give its reported residual activity.
A: 98.1

Q: For the compound Nc1nnc2[nH]c3ccccc3nc1-2 , give its reported residual activity.
A: 96.4

Q: For the compound CCN(CC)CCCCN1c2ccccc2Oc2ccc(Cl)cc21 , give its reported residual activity.
A: 99.2

Q: For the compound Oc1ccc(Nc2nc(-c3ccc(Cl)cc3)cs2)cc1 , give its reported residual activity.
A: 95.3

Q: For the compound CN(C)C[C@H]1CCn2c(c(C3=C(c4cn(C)c5ccccc45)C(=O)NC3=O)c3ccccc32)C1 , give its reported residual activity.
A: 95.8

Q: For the compound CC(C)[C@H](CO)Nc1nc(Nc2cc(N)cc(Cl)c2)c2ncn(C(C)C)c2n1 , give its reported residual activity.
A: 93.9

Q: For the compound Cc1nc2cc3nc(-c4cccs4)cnc3cc2n1C , give its reported residual activity.
A: 104

Q: For the compound Cn1sc(=O)n(Cc2ccccc2)c1=O , give its reported residual activity.
A: 105

Q: For the compound O=C1NC(=O)/C(=C\c2ccc3nccnc3c2)S1 , give its reported residual activity.
A: 81.6

Q: For the compound O=C1NC(=O)C(c2cn(CCCO)c3ncccc23)=C1c1cnccn1 , give its reported residual activity.
A: 95.9

Q: For the compound CN([C@@H](Cc1ccc(OS(=O)(=O)c2cccc3cnccc23)cc1)C(=O)N1CCN(c2ccccc2)CC1)S(=O)(=O)c1cccc2cnccc12 , give its reported residual activity.
A: 89.4

Q: For the compound O=C(CCCc1ccc(-c2ccccc2F)cc1)Nc1ccc(O)cc1 , give its reported residual activity.
A: 87.9

Q: For the compound CC(C)c1nn(-c2c(Cl)cccc2Cl)c2nc(Cc3ccc(OCCO)cc3)nc(O)c12 , give its reported residual activity.
A: 95.2

Q: For the compound Cn1nc2c3c(cccc31)C(=O)c1ccccc1-2 , give its reported residual activity.
A: 105

Q: For the compound CC(=O)O/N=C1\C(=C2\C(=O)Nc3cc(Br)ccc32)Nc2ccccc21 , give its reported residual activity.
A: 91.1

Q: For the compound COc1cc2ncc(-c3ccccc3)nc2cc1OC , give its reported residual activity.
A: 82.9

Q: For the compound O=C(O)/C=C/c1cc(Br)c(Br)c(Br)c1Br , give its reported residual activity.
A: 98.4

Q: For the compound O=C1Nc2ccccc2/C1=C1/Nc2ccccc2/C1=N\OCCC(O)CO (stereo not drawn) , give its reported residual activity.
A: 88.1

Q: For the compound COc1cc2ncnc(N3CCN(C(=O)Nc4ccc(Oc5ccccc5)cc4)CC3)c2cc1OC , give its reported residual activity.
A: 79.1

Q: For the compound COc1ccc(OC)c2c(=S)c3ccccc3[nH]c12 , give its reported residual activity.
A: 91

Q: For the compound O=C1Nc2ccccc2/C1=C1\Nc2ccccc2\C1=N/O , give its reported residual activity.
A: 97.1
